The reported measurements were obtained from ChEMBL document CHEMBL4002602.

Target: hERG (KCNH2) (Homo sapiens, UniProt Q12809)
Sequence (Q12809 whole entry): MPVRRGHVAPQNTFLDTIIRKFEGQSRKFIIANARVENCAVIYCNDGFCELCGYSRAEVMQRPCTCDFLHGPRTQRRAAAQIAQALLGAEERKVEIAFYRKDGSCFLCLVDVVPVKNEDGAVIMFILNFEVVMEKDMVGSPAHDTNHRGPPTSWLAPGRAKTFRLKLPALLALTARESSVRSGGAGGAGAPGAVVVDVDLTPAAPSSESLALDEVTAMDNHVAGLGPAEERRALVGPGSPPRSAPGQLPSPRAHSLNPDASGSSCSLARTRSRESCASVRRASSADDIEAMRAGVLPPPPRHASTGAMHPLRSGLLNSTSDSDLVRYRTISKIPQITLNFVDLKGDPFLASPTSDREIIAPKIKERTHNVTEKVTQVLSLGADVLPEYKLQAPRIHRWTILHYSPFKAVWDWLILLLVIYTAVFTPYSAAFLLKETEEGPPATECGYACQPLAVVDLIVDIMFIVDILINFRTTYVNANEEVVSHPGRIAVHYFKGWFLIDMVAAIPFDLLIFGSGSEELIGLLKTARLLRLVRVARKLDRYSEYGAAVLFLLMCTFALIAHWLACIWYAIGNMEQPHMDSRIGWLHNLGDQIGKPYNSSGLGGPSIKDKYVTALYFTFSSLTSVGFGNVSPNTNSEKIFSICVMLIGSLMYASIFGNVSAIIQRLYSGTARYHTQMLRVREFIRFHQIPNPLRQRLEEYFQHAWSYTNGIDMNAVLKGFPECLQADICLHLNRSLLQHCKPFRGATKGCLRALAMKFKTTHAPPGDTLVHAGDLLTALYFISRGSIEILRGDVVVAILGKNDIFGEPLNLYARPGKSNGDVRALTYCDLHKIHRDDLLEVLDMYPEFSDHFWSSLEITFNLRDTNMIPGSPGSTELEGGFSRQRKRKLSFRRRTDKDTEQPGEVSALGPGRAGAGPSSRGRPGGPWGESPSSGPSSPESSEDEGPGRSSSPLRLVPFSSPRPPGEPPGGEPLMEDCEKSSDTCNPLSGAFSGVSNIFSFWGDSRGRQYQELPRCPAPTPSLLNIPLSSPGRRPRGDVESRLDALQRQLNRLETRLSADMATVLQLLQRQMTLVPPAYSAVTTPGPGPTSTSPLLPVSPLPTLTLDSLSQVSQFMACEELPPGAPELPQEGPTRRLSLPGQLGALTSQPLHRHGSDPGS
Test: Inhibition of [3H]-astemizole binding to human ERG at 10 uM after 2 hrs by liquid scintillation counting method relative to control
Conditions: probe [3H]-astemizole
Readout type: inhibition at 2 h, 10 µM

So what's the measured inhibition at 2 h, 10 µM for this one? `COc1ccc(N2CCOCC2)c2sc(NC(=O)C(C)(C)Oc3ccc(F)cc3)nc12` < 5%

Could you do the same for `COc1cnc(N2CCOCC2)c2sc(NC(=O)C(C)(C)Oc3ccc(F)cc3)nc12` , please? < 10%

Could you do the same for CCN(CC)C1CCC(C)(C(=O)Nc2nc3c(OC)ccc(N4CCOCC4)c3s2)CC1 (centres undefined) , please? 13%

Could you do the same for `COc1ccc(N2CCOCC2)c2sc(NC(=O)C(C)(C)Oc3ccc(F)c(F)c3)nc12` , please? < 5%
